Study System: T1, AFP p26 (human, UniProt P02771 381-609)
T1 construct: The construct used is not described
T1 sequence: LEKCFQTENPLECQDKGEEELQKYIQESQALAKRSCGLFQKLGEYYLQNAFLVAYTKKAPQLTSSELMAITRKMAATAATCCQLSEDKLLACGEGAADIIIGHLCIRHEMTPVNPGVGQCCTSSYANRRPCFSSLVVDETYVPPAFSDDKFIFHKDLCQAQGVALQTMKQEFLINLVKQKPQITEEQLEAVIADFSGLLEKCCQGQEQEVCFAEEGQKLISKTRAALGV
Test Description: phage ELISA, A450 target/A450 IgG1-Fc
The binders listed here are annotated with their ELISA_avg.
Result Type: ELISA_avg (ratio)

> print(dat)
                                     binder  readout.number
1  SEQ ID NO 861 (designed binder) MGSWSYFKEDLANIKSSLEALGGSEAELAWFESSIAWFEHTLQYYKGKGNPEVEALRKEAAAIRDELQAYRHN            11.6
2  SEQ ID NO 793 (designed binder) MGSWYEFYYRLEAIDNRLIALGGSEAELAAFEKEIAAFESELQAYKGKGNPEVEVLREHAAKIREWLQAYRHN            29.6
3  SEQ ID NO 749 (designed binder) MGSWFEFYDRLNAIDARLWALGGSEAELAAFEKEIAAFESELQAYKGKGNPEVENLRVHAAAIREWLQAYRHN            5.92
4  SEQ ID NO 856 (designed binder) MGSWYYFKERLAAIKDRLEALGGSEAELAIFEADIAWFEFMLQYYKGKGNPEVEALRKEAAAIRDELQAYRHN            31.5
5  SEQ ID NO 747 (designed binder) MGSWKEFIQRLDAIHYRLWALGGSEAELAAFEKEIAAFESELQAYKGKGNPEVEYLRFVAAFIRFELQAYRHN            18.4
